Experiment: amyloid nucleation score (Sup35N fusion, yeast selection) (log enrichment); library NNK1; higher = more nucleation; inactive = no reads after selection;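 further: zero at mode of non-aggregating sequences after 7 days selection at 30°C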
Measured amyloid nucleation score, listed per entry for reference.
// return just the number, without any unit appended

substance	recorded-value
YEKSFGTYTM	-0.045
PAVAGEWNARMGWEATRYKA	0.669
AFSANF	0.779
RFFGKYSTEGLNL	0.992
DFSLSSPRFLFGDGCRNCNA	-0.028

(Q) State the recorded amyloid nucleation score for this entry: AMYFTWFVHFGAYRVRSIEK
(A) 1.48

(Q) Subsequent entry: GSSKWISSHRVIDDFSYKRG
(A) 0.406

(Q) Subsequent entry: ICSRTVKFYSSSF
(A) -2.03

(Q) Subsequent entry: PIHPRTLMG
(A) 0.117

(Q) Subsequent entry: IEIKTIFVSFLFCECKFCGY
(A) 5.63

(Q) Subsequent entry: IQTCCHIQVELV
(A) 3.79

(Q) Subsequent entry: AGLWYNWRECSFHRVVVGYP
(A) 0.737

(Q) Subsequent entry: TLLWFNEFILSGPNFRIGVV
(A) 0.857

(Q) Subsequent entry: VKLAVREVTSEMPREKLTVA
(A) 0.236

(Q) Subsequent entry: RPSTLCFTIIRVYKLSRSPT
(A) 2.65

(Q) Subsequent entry: WFWYIYM
(A) 1.54

(Q) Subsequent entry: GSEFQVLSFF
(A) 0.419

(Q) Subsequent entry: SYKSWQ
(A) 0.978

(Q) Subsequent entry: FVLLELVSVVRVLHYDGIWD
(A) 0.079

(Q) Subsequent entry: LVWILHVSSVNNHVDWGMLE
(A) -1.64

(Q) Subsequent entry: VFESWKFELRVWIVVTFLHG
(A) 0.21

(Q) Subsequent entry: SRRNYWVFGGHMFND
(A) -0.134

(Q) Subsequent entry: RDSLESTVGVKMGNASGVCR
(A) -0.818

(Q) Subsequent entry: GRGTGAVFVYVEWSLYGN
(A) -0.036

(Q) Subsequent entry: TFYLSRDIRLYFSWN
(A) 7.83

(Q) Subsequent entry: LSVSFDVDVMVMIQVNCAIH
(A) 0.105

----------
Experiment: amyloid nucleation score (Sup35N fusion, yeast selection) (log enrichment); library NNK2; higher = more nucleation; inactive = no reads after selection
Categories are defined by ranges of amyloid nucleation score, namely low interval: < -0.05; middle interval: ≥ -0.05 and < 2; high interval: ≥ 2

substance	label-value
NLKLPNRSSWVLPVQYRPFD	high interval
LAQMQR	low interval
RVVLCVNLSPTSFVWSRIKE	high interval
TWVNYIIRKVRLVTIRLYVY	middle interval
FDNRNVSVSYPYNKMGNRVM	high interval

(Q) Sort HSWAKMFMMLWGTMSRWDRA into one of the categories.
(A) low interval

----------
Measured amyloid nucleation score, listed per entry for reference.
Experiment: amyloid nucleation score (Sup35N fusion, yeast selection) (log enrichment); library NNK3; higher = more nucleation; inactive = no reads after selection
// return just the number, without any unit appended

substance	amyloid nucleation score
NLWYAFMSFVVNDGHIRLGR	1.1

(Q) State the recorded amyloid nucleation score for this entry: MFCSIIKSQTVAFLVGSSFG
(A) 0.145

(Q) Subsequent entry: LGIRWLLACWVVENLDFPNI
(A) -0.719

(Q) Subsequent entry: ITNVWSVFKIRIGNCGFGAG
(A) 1.9

----------
Assay: amyloid nucleation score (Sup35N fusion, yeast selection) (log enrichment); library NNK2; higher = more nucleation; inactive = no reads after selection
Criterion: amyloid nucleation score meeting or surpassing 0.7. Met: 1. Not met: 0.

substance	label-value
GLMRVRYESHRMKAGSLVSR	1
IYFYKSGESFRAYPFAPGQW	0

(Q) Please tell me: is the substance TMLETLRARADLMCQVWYSV at or over 0.7 in terms of amyloid nucleation score?
(A) 1

----------
Measured amyloid nucleation score, listed per entry for reference.
Assay: amyloid nucleation score (Sup35N fusion, yeast selection) (log enrichment); library NNK1; higher = more nucleation; inactive = no reads after selection
// return just the number, without any unit appended

In the examples that follow, each entry is paired with its recorded amyloid nucleation score.
seq	amyloid nucleation score
CFKFARGGVLI	1.32
YKSVLHSSRSGGAYGVVKSL	-0.038
NIEIRVCSRIVGHGLKFPKP	3.37

(Q) State the recorded amyloid nucleation score for this entry: TVAFSVTTVDR
(A) -0.875

(Q) Subsequent entry: QTRWWEYHHNLFVLQITFGG
(A) 1.04

(Q) Subsequent entry: LICPSLHPRAVGECSSVCWR
(A) 0.157

----------
Test: amyloid nucleation score (Sup35N fusion, yeast selection) (log enrichment); library NNK2; higher = more nucleation; inactive = no reads after selection
Criterion: amyloid nucleation score meeting or surpassing 0.9. Met: MET. Not met: NOT MET.

substance	label-value
RYLVVKEQDFPDEYAPY	NOT MET
VLVIVVTLRKWMTLNRRGVP	NOT MET
ELQGYSNCGLEIGGTCHRGY	NOT MET
CKHDCETWWCSY	MET
GHFRFEHCVSVSLSSIFSNE	MET
NLVAMPDQVAGSTCRVCNNN	NOT MET
VVVIGNFVSPRDIRFISMYT	MET
WFAWYCSSRYRHRR	MET
LGLCHMLLSDAGWRVRCRGK	NOT MET
YSLLNVSHVVFTSA	NOT MET

(Q) Please tell me: is the substance SRYSFYLRFHVLSVMAVQML at or over 0.9 in terms of amyloid nucleation score?
(A) NOT MET

(Q) Subsequent entry: TSMSYLLRFVCGFRCTYSLC
(A) NOT MET

----------
Assay: amyloid nucleation score (Sup35N fusion, yeast selection) (log enrichment); library NNK2; higher = more nucleation; inactive = no reads after selection
Measured amyloid nucleation score, listed per entry for reference.
// return just the number, without any unit appended

In the examples that follow, each entry is paired with its recorded amyloid nucleation score.
substance	recorded-endpoint	recorded-value
LSHMLDLRGNNKSFWCYVEG	amyloid nucleation score	0.89
SLLLFIYQMDRLVVASMLTN	amyloid nucleation score	-0.651
YHGYLPD	amyloid nucleation score	-0.826
HAILPRCTFHSPMVYALYFT	amyloid nucleation score	0.58
KSCGNGHISDVIYLRGMLGV	amyloid nucleation score	-0.538

(Q) State the recorded amyloid nucleation score for this entry: AFSLCFRYYLPRVNASG
(A) -0.147

(Q) Subsequent entry: VDRIESVSYLYSHDYNESGP
(A) -0.212

(Q) Subsequent entry: TQVLYSSCFVVVLSYLSRQD
(A) 4.51

(Q) Subsequent entry: SKSEIHCYLMMGRHLFG
(A) 4.5

(Q) Subsequent entry: IHLHYNVDNCTFELLK
(A) -0.499

(Q) Subsequent entry: CRLFQSQIYERYTSRCVYRF
(A) -1.05

(Q) Subsequent entry: NCYGVVYSLCNMEVLSMWHE
(A) 7.72

(Q) Subsequent entry: FNDGTQKSTLACVRNKYRVY
(A) 0.633

----------
Test: amyloid nucleation score (Sup35N fusion, yeast selection) (log enrichment); library NNK1; higher = more nucleation; inactive = no reads after selection
recorded-endpoint: amyloid nucleation score
// return just the number, without any unit appended

In the examples that follow, each entry is paired with its recorded amyloid nucleation score.
seq	amyloid nucleation score
SFESVVIVLKLNALFPCVST	-0.048
GARYNASDRGEASYLIEHCG	-0.531
AANCTMMFKKPSWNVTRERV	0.26
YEKVSDQGNLGLASIYLAGK	-0.159
SNLRMLNMASTSPR	-0.368
HLSALLANSNLNKM	-0.359

(Q) State the recorded amyloid nucleation score for this entry: THWGRVELMFFRSSKHRLT
(A) -0.334

(Q) Subsequent entry: LDVCCEYPSKSSVMEWQVWL
(A) 1.02

(Q) Subsequent entry: VSKSYPIPCISKVS
(A) 0.336

(Q) Subsequent entry: RHTGPIMLSWDAKGRGK
(A) 0.622

(Q) Subsequent entry: YAYMVLVVPRDSVLEESECR
(A) -0.087

(Q) Subsequent entry: ADTCGCGWDSRRKCFMGGYS
(A) -0.187

(Q) Subsequent entry: GFYDRYVNAGMECAGPSSQR
(A) 5.24

(Q) Subsequent entry: LGSGQGVNLSALPRFEYACR
(A) 0.527

(Q) Subsequent entry: TYPYYVTVGGIS
(A) 0.113

(Q) Subsequent entry: GYFLPGFEMLCYNRRIWYIM
(A) -1.03

----------
Measured amyloid nucleation score, listed per entry for reference.
Assay: amyloid nucleation score (Sup35N fusion, yeast selection) (log enrichment); library NNK2; higher = more nucleation; inactive = no reads after selection
// return just the number, without any unit appended

In the examples that follow, each entry is paired with its recorded amyloid nucleation score.
substance	recorded-value
KTQKLLGRAWRNYGYGCCVR	-0.487
LVKGRAAERCNFLSWVKSVQ	-0.533
NHHTEDMVK	0.367
LRSYWSGIGTTGPV	4.57
ILIWVVNLYAYVNYFM	3.1

(Q) State the recorded amyloid nucleation score for this entry: LWFLVFMDMVRRWRGNHRGE
(A) -0.656

(Q) Subsequent entry: RHLDSDPRIRKPHFGDPVNT
(A) -0.144

(Q) Subsequent entry: HREKAGSPSCREI
(A) -0.347

(Q) Subsequent entry: WGNNSYSPFASKYAVSQDMD
(A) -0.902

(Q) Subsequent entry: RRFCSCQLSKPLIFPMVLYW
(A) -0.454

(Q) Subsequent entry: SSNYYVLCFTMPYWFYSLV
(A) 1.02

(Q) Subsequent entry: DVVILMF
(A) 0.639
